target: human albumin (HA) (Homo sapiens, UniProt P02768); experiment: SPR adsorption and desorption cycles of HA on functionalized chips with release agents; format: binding; settings: release agent SDS 35 mM
Sequence (P02768 25-609): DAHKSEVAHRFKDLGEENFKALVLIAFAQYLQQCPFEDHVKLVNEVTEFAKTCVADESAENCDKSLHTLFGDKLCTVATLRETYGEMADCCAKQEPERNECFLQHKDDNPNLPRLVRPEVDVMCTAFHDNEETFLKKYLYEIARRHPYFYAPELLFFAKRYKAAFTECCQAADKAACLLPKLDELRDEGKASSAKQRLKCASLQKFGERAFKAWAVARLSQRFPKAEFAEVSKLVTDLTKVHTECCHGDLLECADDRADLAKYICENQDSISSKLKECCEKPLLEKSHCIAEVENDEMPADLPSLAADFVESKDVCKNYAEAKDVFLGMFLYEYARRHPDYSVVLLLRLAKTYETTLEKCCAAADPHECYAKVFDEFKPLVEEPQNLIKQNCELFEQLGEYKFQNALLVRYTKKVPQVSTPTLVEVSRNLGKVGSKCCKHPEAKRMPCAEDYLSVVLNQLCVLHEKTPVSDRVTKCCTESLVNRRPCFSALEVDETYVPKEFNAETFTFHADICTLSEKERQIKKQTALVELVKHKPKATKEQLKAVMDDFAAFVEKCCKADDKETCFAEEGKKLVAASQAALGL
Property: Release percentage (highest observed; %) SDS (35 mM); scope: individual compounds
experimental_endpoint: Release percentage (highest observed; %) SDS (35 mM)

>  <compound_string>
Nc1c(S(=O)(=O)O)cc(Nc2ccc(Nc3nc(Cl)nc(Nc4ccccc4S(=O)(=O)O)n3)c(S(=O)(=O)O)c2)c2c1C(=O)c1ccccc1C2=O

>  <study_system>
human albumin (HA) (Homo sapiens, UniProt P02768)

>  <result>
93.0%

$$$$
>  <compound_string>
Nc1ccc2c(O)c(N=Nc3ccc(N=Nc4ccc(N=Nc5cc(S(=O)(=O)[O-])c6cccc(S(=O)(=O)[O-])c6c5)c5ccccc45)c4ccc(S(=O)(=O)[O-])cc34)c(S(=O)(=O)[O-])cc2c1.[Na+].[Na+].[Na+].[Na+]

>  <study_system>
human albumin (HA) (Homo sapiens, UniProt P02768)

>  <result>
0%

$$$$
>  <compound_string>
CCCCCCCC

>  <study_system>
human albumin (HA) (Homo sapiens, UniProt P02768)

>  <result>
29.5%

$$$$
>  <compound_string>
N[C@@H](Cc1c[nH]c2ccccc12)C(=O)O

>  <study_system>
human albumin (HA) (Homo sapiens, UniProt P02768)

>  <result>
0%

$$$$

====

target: UniProt:P02768; test: SPR adsorption and desorption cycles of HA on functionalized chips with release agents; type: binding; conditions: release agent NaSCN 2M
experimental_endpoint: Release percentage (highest observed; %) NaSCN (2M)

>  <compound>
N[C@@H](Cc1c[nH]c2ccccc12)C(=O)O [Tryptophan (NH2 term), Tryptophan]

>  <numeric_result>
15.0

$$$$
>  <compound>
Nc1ccc2c(O)c(N=Nc3ccc(N=Nc4ccc(N=Nc5cc(S(=O)(=O)[O-])c6cccc(S(=O)(=O)[O-])c6c5)c5ccccc45)c4ccc(S(=O)(=O)[O-])cc34)c(S(=O)(=O)[O-])cc2c1.[Na+].[Na+].[Na+].[Na+] [Direct Blue 71]

>  <numeric_result>
0

$$$$
>  <compound>
Nc1c(S(=O)(=O)O)cc(Nc2ccc(Nc3nc(Cl)nc(Nc4ccccc4S(=O)(=O)O)n3)c(S(=O)(=O)O)c2)c2c1C(=O)c1ccccc1C2=O [Cibacron Blue]

>  <numeric_result>
78.0

$$$$
>  <compound>
CCCCCCCC [Octane (C8; Alkane), Octane]

>  <numeric_result>
51.4

$$$$
>  <compound>
N[C@@H](Cc1c[nH]c2ccccc12)C(=O)O [Tryptophan (COOH term), Tryptophan]

>  <numeric_result>
0

$$$$

====

molecular target: human albumin (HA) (Homo sapiens, UniProt P02768); assay: SPR Langmuir isotherm of HA adsorption on ligand-functionalized sensor chips; format: binding; conditions: read-out: Kd of HA on SPR sensor modified with different ligands
experimental_endpoint: Kd (µM)

>  <compound_string>
Nc1c(S(=O)(=O)O)cc(Nc2ccc(Nc3nc(Cl)nc(Nc4ccccc4S(=O)(=O)O)n3)c(S(=O)(=O)O)c2)c2c1C(=O)c1ccccc1C2=O

>  <output_unit>
µM

>  <numeric_result>
3

$$$$

====

biological target: human albumin (HA) (Homo sapiens, UniProt P02768); assay: SPR adsorption and desorption cycles of HA on functionalized chips with release agents; type: binding; details: 2 mg/mL HA, functionalized SPR chip
experimental_endpoint: SPR angle shift after HA binding

>  <compound>
Nc1ccc2c(O)c(N=Nc3ccc(N=Nc4ccc(N=Nc5cc(S(=O)(=O)[O-])c6cccc(S(=O)(=O)[O-])c6c5)c5ccccc45)c4ccc(S(=O)(=O)[O-])cc34)c(S(=O)(=O)[O-])cc2c1.[Na+].[Na+].[Na+].[Na+]

>  <experimental_endpoint>
SPR angle shift after HA binding

>  <result>
~0.19 °

$$$$
>  <compound>
N[C@@H](Cc1c[nH]c2ccccc12)C(=O)O [Tryptophan (NH2 term), Tryptophan]

>  <experimental_endpoint>
SPR angle shift after HA binding

>  <result>
~0.17 °

$$$$
>  <compound>
CCCCCCCC

>  <experimental_endpoint>
SPR angle shift after HA binding

>  <result>
~0.11 °

$$$$
>  <compound>
N[C@@H](Cc1c[nH]c2ccccc12)C(=O)O [Tryptophan (COOH term), Tryptophan]

>  <experimental_endpoint>
SPR angle shift after HA binding

>  <result>
~0.19 °

$$$$
